Every entry's value here was drawn from PubChem BioAssay.

assay: CREB reporter modulators without forskolin, primary screen, cell-based, PC12, CRE-LacZ reporter, unstimulated (AID 1145); settings: no forskolin, luminescence, 4.5 h, higher = more signal, called active from +8 up or from −8 down

COMPOUND: COc1cccc(C[C@H]2C[C@@H](CO[Si](C(C)C)(C(C)C)C(C)C)N3C(=O)[C@@]4(C(C)=O)O[C@@]23[C@@H]2C(=O)N(C)C(=O)[C@@H]24)c1
z-score: 0.222
--
COMPOUND: CCC[C@@H]1[C@@H](Sc2ccccc2)[C@@H](C(=O)O)[C@H](c2ccc(C)cc2)N1S(=O)(=O)c1ccc(C)cc1
z-score: -0.471
--
COMPOUND: O=C1OCCC/C=C\[C@H]2OC34C=CCN(Cc5ccccc5)C(=O)[C@H]3N(CCCCCO)C(=O)[C@@H]4C12 (stereo not given in full)
z-score: 0.732
--
COMPOUND: NC(=O)NCC#Cc1ccc2c(c1)[C@]1(C(=O)N2)[C@H](C(=O)N2CCCCCCC2)[C@H]2C(=O)O[C@H](c3ccccc3)[C@H](c3ccccc3)N2[C@@H]1c1ccc(O)cc1
z-score: 0.0695
--
COMPOUND: C=C(CCCC)/C(=C/C[C@H](OC(C)=O)c1cccc(OCCO)c1)c1cc(C(=O)OC)ccc1OC
z-score: 12.1
--
COMPOUND: CCCCC(O)C1C=CC2C(=O)N(C)C(=O)C2N1Nc1ccccc1 (stereo not given)
z-score: -0.14
--
COMPOUND: CC(C)CNC(=O)[C@@]1(C)c2ccccc2C(=O)N(Cc2cc(F)cc(C(F)(F)F)c2)[C@H]1c1ccc(CO)cc1
z-score: -0.321
--
COMPOUND: C=C(COC)/C(=C/C[C@H](OC(=O)c1ccncc1)c1ccc(OCCO)cc1)c1cc(C(=O)OC)ccc1OC
z-score: 5.8
--
COMPOUND: O=C1NC(=O)C2C1C=CC(C(O)c1cccc(O)c1)N2Nc1ccc(Cl)cc1Cl (stereo not given)
z-score: 0.629
--
COMPOUND: COC(=O)Cn1c(C(=O)N(C)C)cc2c1C[C@H]1CN(C(=O)c3ccccc3)[C@@](Cc3ccc(OC)cc3)(C(=O)OC)[C@@H]21
z-score: 0.966
--
COMPOUND: CC(=O)c1ccc(C(O)C2C=CC3C(=O)N(C)C(=O)C3N2NC(=O)OC(C)(C)C)cc1 (stereo not given)
z-score: 0.246
--
COMPOUND: C=CCC(OC(C)=O)[C@@H]1[C@@H](N(Cc2cc3ccccc3o2)C(=O)c2cccc3ccccc23)c2cc(OCCCO)ccc2N1C(=O)c1ccc2ccccc2c1 (stereo not given in full)
z-score: 3.85
--
COMPOUND: COc1ccc(CC[C@H](O)c2cccc(OCC(=O)OC(C)(C)C)c2)cc1
z-score: 0.595
--
COMPOUND: CN(C)CCCC[C@@H]1NC(=O)[C@H]2C[C@@H](C(=O)NCc3ccc(F)cc3)[C@@H](c3ccc(O)cc3)N2C1=O
z-score: 0.0084
--
COMPOUND: CN1C=C(C(=O)OCCS(C)(=O)=O)C(C(=O)OCCS(C)(=O)=O)=CC(CCCO)=CC1c1ccc(CN2CCCC2)cc1 (stereo not given)
z-score: 5.05

---

assay: small-molecule microarray binders of probe aCHRDL2, primary screen, biochemical, biotinylated probe, 635/667 nm fluorescence (AID 1100); conditions: higher = more signal
Outcome: yes for composite z-score of at least 0.4; no for anything lower.

MOLECULE: COCCOC(=O)N1C(=O)[C@@]2(c3cc(C#CCC(C(=O)OC)C(=O)OC)ccc31)[C@H](c1ccc(OCCO)cc1)N1[C@H](c3ccccc3)[C@H](c3ccccc3)OC(=O)[C@H]1[C@@H]2C(=O)N1CCCCCCC1
GROUP: yes
--
MOLECULE: C[N+](C)(C)CCCCCCNC(=O)[C@H]1C[C@H]2C(=O)NCC(=O)N2[C@H]1c1cccc(OCCO)c1
GROUP: no
--
MOLECULE: CC(C)CNC(=O)[C@@H]1c2ccccc2C(=O)N(CC23CC4CC(CC(C4)C2)C3)[C@H]1c1ccc(CO)cc1
GROUP: yes
--
MOLECULE: CC(=O)c1ccc(C(O)C2C=CC3C(=O)NC(=O)C3N2Nc2ccc(Cl)cc2Cl)cc1 (stereo unspecified)
GROUP: yes
--
MOLECULE: COc1ccc([Si](C)(C)[C@H]2[C@H](CCO)O[C@@]3(C(=O)N(Cc4ccc(N5CCOC5=O)cc4)c4ccccc43)[C@@H]2C)cc1
GROUP: no
--
MOLECULE: C=CCOC(=O)[C@H]1[C@@H]2C(=O)O[C@@H](c3ccccc3)[C@@H](c3ccccc3)N2[C@@H](c2ccc(OCCOC(=O)[C@@H]3C[C@@H]4C(=O)N[C@@H](CC(C)C)C(=O)N4[C@@H]3c3ccc(O)cc3)cc2)[C@]12C(=O)Nc1ccc(I)cc12
GROUP: no
